assay.protocol: Measurement of pKa of compound β in ground state (acid titration, 0.1 N HCl, methanol/water)
condition.set: methanol/water mixture, pKa in ground state, compound β; pKa of the conjugate acid for nitrogen-containing aromatic compounds
Consider the following compounds and their measured pKa readings.
Lab note: record just the number, no unit beside it.

Would you please look over these solved cases?
COc1cc(C)nc2ccccc12 ... 6.51
c1cnc2c(c1)CCCC2 [5,6,7,8-Tetrahydroquinoline] ... 5.9
Cc1cc(C)c2ccccc2n1 ... 5.67
Cc1c2ccccc2nc2ccccc12 ... 5.4
CCCCc1nccc2ccccc12 ... 5.27

Fill in reported pKa for this entry: Cc1cc(C)c2c(C)cc(C)nc2c1 6.23

----------
Consider the following compounds and their measured pKa readings.
assay.protocol: Measurement of pKa of compound β in ground state (acid titration, 0.1 N HCl, methanol/water)
condition.set: methanol/water mixture, pKa in ground state, compound β; pKa of the conjugate acid for nitrogen-containing aromatic compounds
Lab note: record just the number, no unit beside it.

Would you please look over these solved cases?
c1ccc2cnccc2c1 [Example B1, isoquinoline] ... 4.7
c1ccc2c(c1)cnc1ccccc12 [Phenanthridine] ... 3.8
CCCCc1ncc(C)c2ccccc12 [Example B5, 1-n-butyl-4-methylisoquinoline] ... 5.9

Fill in reported pKa for this entry: CC(=O)c1ccncc1 [4-Acetylpyridine] 3.1

----------
assay.protocol: Measurement of pKa of compound β in ground state (acid titration, 0.1 N HCl, methanol/water)
condition.set: methanol/water mixture, pKa of Compound β in ground state, compound β, ground state
measured.quantity: pKa
Lab note: record just the number, no unit beside it.

Would you please look over these solved cases?
Cc1c2ccccc2nc2ccccc12 ... 5.4
CCCCc1nccc2ccccc12 ... 5.27
Cc1cc(C)c2c(C)cc(C)nc2c1 ... 6.23
c1ccc2nc3ccccc3cc2c1 ... 4.67
CCCCc1ncc(C)c2ccccc12 ... 5.9
COc1cc(C)nc2ccccc12 ... 6.51
Nc1ccncc1 ... 9.2

Turning now to a further record.
Fill in reported pKa for this entry: Cc1cc(C)c2ccccc2n1 5.67

----------
Consider the following compounds and their measured ε365 of Compound β readings.
assay.protocol: Measurement of ε365 and ε365/ε313 of compound β (molar absorption coefficients in acetonitrile)
Type: physicochemical
Set-up: key: molar absorption coefficient at 365 nm in (cm·mol/L)^−1
condition.set: compound β alone

Fill in reported ε365 of Compound β for this entry: c1ccc2cnccc2c1 <10

Fill in reported ε365 of Compound β for this entry: COc1cc(C)nc2ccccc12 <10

Fill in reported ε365 of Compound β for this entry: Clc1ccccn1 <10

----------
assay.protocol: Measurement of pKa of compound β in ground state (acid titration, 0.1 N HCl, methanol/water)
condition.set: methanol/water mixture, pKa of Compound β in ground state
# if value of pKa reaches 6, tag 1 (yes); if it stays below, tag 0 (no)

Nc1ccncc1 [Example 4-Aminopyridine, 4-Aminopyridine] ... 1 (yes)
c1ccc2nc3ccccc3cc2c1 [Example B3, acridine] ... 0 (no)
COc1cc(C)nc2ccccc12 [Example 2-Methyl-4-methoxyquinoline, 2-Methyl-4-methoxyquinoline] ... 1 (yes)

Below: the item to evaluate.
Hi team, for c1ccc2cnccc2c1 [Example B1, isoquinoline] , is the recorded pKa at or above 6? 0 (no)
